# System: Rattus norvegicus
# assayInfo: Anticonvulsant activity in Wistar Rattus norvegicus (rat) assessed as protection against maximal electroshock-induced seizures at 30 mg/kg, po after 0.5 hr
# Format: functional
metric: Activity (%)
// note: answer is a bare numeric in %

Completed entries (count: 5):
INSERT INTO measurements (molecule, experimentaltarget, metric, recordedresult) VALUES
  ('Cc1nc2c(Br)cc(Br)cc2c(=O)n1-c1ccc(C(=O)N2N=C(c3ccccc3)CC2c2ccc(Cl)cc2)cc1 (centres undefined)', 'Rattus norvegicus', 'Activity', 50),
  ('Cc1nc2c(Br)cc(Br)cc2c(=O)n1-c1ccc(C(=O)N2N=C(c3ccccc3)CC2c2ccc(N(C)C)cc2)cc1 (centres undefined)', 'Rattus norvegicus', 'Activity', 50),
  ('O=C1NC(=O)C(c2ccccc2)(c2ccccc2)N1', 'Rattus norvegicus', 'Activity', 100),
  ('Cc1nc2ccccc2c(=O)n1-c1ccc(C(=O)N2N=C(c3ccccc3)CC2c2ccc(Cl)cc2)cc1 (centres undefined)', 'Rattus norvegicus', 'Activity', 50),
  ('Cc1ccc(C2CC(c3ccccc3)=NN2C(=O)c2ccc(-n3c(C)nc4ccccc4c3=O)cc2)cc1 (centres undefined)', 'Rattus norvegicus', 'Activity', 50);

# input molecule: Cc1nc2ccccc2c(=O)n1-c1ccc(C(=O)N2N=C(c3ccccc3)CC2c2ccc(N(C)C)cc2)cc1 (centres undefined) ; wanted: its Activity 0

Also, Cc1nc2ccccc2c(=O)n1-c1ccc(C(=O)N2N=C(c3ccccc3)CC2c2ccc(O)cc2)cc1 (centres undefined) please. 50

Also, Cc1nc2c(Br)cc(Br)cc2c(=O)n1-c1ccc(C(=O)N2N=C(c3ccccc3)CC2c2ccc(O)cc2)cc1 (centres undefined) please. 50

Also, Cc1ccc(C2CC(c3ccccc3)=NN2C(=O)c2ccc(-n3c(C)nc4c(Br)cc(Br)cc4c3=O)cc2)cc1 (centres undefined) please. 50

====

# Test system: Mus musculus
# assayInfo: Neurotoxicity in Swiss albino Mus musculus (mouse) assessed as minimal motor impairment at 300 mg/kg, ip after 0.5 hr by rotorod test
# Type: toxicity, organism-based
# Parameters: dose 300 mg/kg, route intraperitoneal
# setupConditions: in vivo
metric: Activity

Completed entries (count: 7):
INSERT INTO assay_data (molecule, metric, recordedresult) VALUES
  ('Cc1nc2c(Br)cc(Br)cc2c(=O)n1-c1ccc(C(=O)N2N=C(c3ccccc3)CC2c2ccc(O)cc2)cc1 (stereo not drawn)', 'Activity', 'Toxic'),
  ('Cc1nc2ccccc2c(=O)n1-c1ccc(C(=O)N2N=C(c3ccccc3)CC2c2ccc(Cl)cc2)cc1 (stereo not drawn)', 'Activity', 'Toxic'),
  ('Cc1nc2c(Br)cc(Br)cc2c(=O)n1-c1ccc(C(=O)N2N=C(c3ccccc3)CC2c2ccc(Cl)cc2)cc1 (stereo not drawn)', 'Activity', 'Non-toxic'),
  ('Cc1nc2ccccc2c(=O)n1-c1ccc(C(=O)N2N=C(c3ccccc3)CC2c2ccc(N(C)C)cc2)cc1 (stereo not drawn)', 'Activity', 'Non-toxic'),
  ('CCC1(C)CC(=O)NC1=O (stereo not drawn) [ETHOSUXIMIDE]', 'Activity', 'Non-toxic'),
  ('O=C(c1ccc(-n2c(-c3ccccc3)nc3ccccc3c2=O)cc1)N1N=C(c2ccccc2)CC1c1ccc(Cl)cc1 (stereo not drawn)', 'Activity', 'Non-toxic'),
  ('Cc1nc2c(Br)cc(Br)cc2c(=O)n1-c1ccc(C(=O)N2N=C(c3ccccc3)CC2c2ccc(N(C)C)cc2)cc1 (stereo not drawn)', 'Activity', 'Toxic');

# input for lookup
# input molecule: COc1ccc(C2CC(c3ccccc3)=NN2C(=O)c2ccc(-n3c(C)nc4ccccc4c3=O)cc2)cc1 (stereo not drawn) ; wanted: its Activity Non-toxic

====

# System: Mus musculus
# assayInfo: Neurotoxicity in Swiss albino Mus musculus (mouse) assessed as minimal motor impairment at 300 mg/kg, ip after 0.5 hr by rotorod test
# Format: toxicity, organism-based
# Parameters: dose 300 mg/kg, route intraperitoneal
# setupConditions: in vivo
metric: Activity

INSERT INTO results (compound, recordedresult) VALUES
  ('Cc1ccc(C2CC(c3ccccc3)=NN2C(=O)c2ccc(-n3c(C)nc4c(Br)cc(Br)cc4c3=O)cc2)cc1 (centres undefined)', 'Non-toxic'),
  ('O=C(c1ccc(-n2c(-c3ccccc3)nc3ccccc3c2=O)cc1)N1N=C(c2ccccc2)CC1c1ccc(O)cc1 (centres undefined)', 'Non-toxic'),
  ('COc1ccc(C2CC(c3ccccc3)=NN2C(=O)c2ccc(-n3c(C)nc4c(Br)cc(Br)cc4c3=O)cc2)cc1 (centres undefined)', 'Toxic'),
  ('Cc1ccc(C2CC(c3ccccc3)=NN2C(=O)c2ccc(-n3c(C)nc4ccccc4c3=O)cc2)cc1 (centres undefined)', 'Non-toxic');

====

# Test system: Mus musculus
# assayInfo: Anticonvulsant activity in Swiss albino Mus musculus (mouse) assessed as protection against maximal electroshock-induced seizures at 300 mg/kg, ip after 0.5 hr
# Assay type: functional, organism-based
# Parameters: dose 300 mg/kg
Activity calls are given as the source filed them. No cut-off for these calls is given here.
metric: Activity

INSERT INTO results (compound, recordedresult) VALUES
  ('O=C(c1ccc(-n2c(-c3ccccc3)nc3ccccc3c2=O)cc1)N1N=C(c2ccccc2)CC1c1cccc([N+](=O)[O-])c1 (centres undefined)', 'inactive'),
  ('CN(C)c1ccc(C2CC(c3ccccc3)=NN2C(=O)c2ccc(-n3c(-c4ccccc4)nc4ccccc4c3=O)cc2)cc1 (centres undefined)', 'inactive'),
  ('COc1ccc(C2CC(c3ccccc3)=NN2C(=O)c2ccc(-n3c(-c4ccccc4)nc4ccccc4c3=O)cc2)cc1 (centres undefined)', 'inactive');

====

Catalogue of Activity readings, one per entry.
# Tested on: Rattus norvegicus
# assayInfo: Anticonvulsant activity in Wistar Rattus norvegicus (rat) assessed as protection against maximal electroshock-induced seizures at 30 mg/kg, po after 1 hr
# Assay type: functional
// note: answer is a bare numeric in %

Completed entries (count: 3):
INSERT INTO assay_data (compound, recordedresult) VALUES
  ('Cc1nc2ccccc2c(=O)n1-c1ccc(C(=O)N2N=C(c3ccccc3)CC2c2ccc(N(C)C)cc2)cc1 (centres undefined)', 0),
  ('Cc1nc2ccccc2c(=O)n1-c1ccc(C(=O)N2N=C(c3ccccc3)CC2c2ccc(Cl)cc2)cc1 (centres undefined)', 50),
  ('O=C1NC(=O)C(c2ccccc2)(c2ccccc2)N1 [PHENYTOIN]', 75);

Record lookup: for Rattus norvegicus, what Activity belongs to Cc1nc2c(Br)cc(Br)cc2c(=O)n1-c1ccc(C(=O)N2N=C(c3ccccc3)CC2c2ccc(O)cc2)cc1 (centres undefined) ? 50

Also, Cc1ccc(C2CC(c3ccccc3)=NN2C(=O)c2ccc(-n3c(C)nc4ccccc4c3=O)cc2)cc1 (centres undefined) please. 50

Also, Cc1nc2c(Br)cc(Br)cc2c(=O)n1-c1ccc(C(=O)N2N=C(c3ccccc3)CC2c2ccc(N(C)C)cc2)cc1 (centres undefined) please. 25

Also, Cc1nc2ccccc2c(=O)n1-c1ccc(C(=O)N2N=C(c3ccccc3)CC2c2ccc(O)cc2)cc1 (centres undefined) please. 50

Also, Cc1ccc(C2CC(c3ccccc3)=NN2C(=O)c2ccc(-n3c(C)nc4c(Br)cc(Br)cc4c3=O)cc2)cc1 (centres undefined) please. 50

Also, Cc1nc2c(Br)cc(Br)cc2c(=O)n1-c1ccc(C(=O)N2N=C(c3ccccc3)CC2c2ccc(Cl)cc2)cc1 (centres undefined) please. 50

====

# Test system: Mus musculus
# assayInfo: Neurotoxicity in Swiss albino Mus musculus (mouse) assessed as minimal motor impairment at 300 mg/kg, ip after 4 hr by rotorod test
# Format: toxicity, organism-based
# Set-up: dose 300 mg/kg, route intraperitoneal
# setupConditions: in vivo
metric: Activity

INSERT INTO results (molecule, metric, recordedresult) VALUES
  ('Cc1nc2c(Br)cc(Br)cc2c(=O)n1-c1ccc(C(=O)N2N=C(c3ccccc3)CC2c2ccc(O)cc2)cc1 (stereo not drawn)', 'Activity', 'Non-toxic'),
  ('Cc1ccc(C2CC(c3ccccc3)=NN2C(=O)c2ccc(-n3c(C)nc4ccccc4c3=O)cc2)cc1 (stereo not drawn)', 'Activity', 'Non-toxic'),
  ('Cc1nc2ccccc2c(=O)n1-c1ccc(C(=O)N2N=C(c3ccccc3)CC2c2ccc(Cl)cc2)cc1 (stereo not drawn)', 'Activity', 'Non-toxic'),
  ('Cc1nc2ccccc2c(=O)n1-c1ccc(C(=O)N2N=C(c3ccccc3)CC2c2ccc(O)cc2)cc1 (stereo not drawn)', 'Activity', 'Toxic'),
  ('Cc1nc2c(Br)cc(Br)cc2c(=O)n1-c1ccc(C(=O)N2N=C(c3ccccc3)CC2c2ccc(N(C)C)cc2)cc1 (stereo not drawn)', 'Activity', 'Toxic'),
  ('Cc1ccc(C2CC(c3ccccc3)=NN2C(=O)c2ccc(-n3c(C)nc4c(Br)cc(Br)cc4c3=O)cc2)cc1 (stereo not drawn)', 'Activity', 'Toxic');

Record lookup: for Mus musculus, what Activity belongs to O=C(c1ccc(-n2c(-c3ccccc3)nc3ccccc3c2=O)cc1)N1N=C(c2ccccc2)CC1c1ccc(O)cc1 (stereo not drawn) ? Non-toxic

Also, O=C(c1ccc(-n2c(-c3ccccc3)nc3ccccc3c2=O)cc1)N1N=C(c2ccccc2)CC1c1ccc(Cl)cc1 (stereo not drawn) please. Toxic

Values were extracted from ChEMBL document CHEMBL3045074.
